biological target: EGFR G598V (Homo sapiens, UniProt P00533, G598V); experiment: BaF3 cell proliferation assay (CellTiterGlo), EGFR G598V; conditions: Table B; BaF3 cells, 3 days
pIC50: −log10 of the molar value.

{"columns": ["RECORD_SMILES", "pIC50"],
 "data": [
  ["CN1C[C@H]2C[C@@]2(C#Cc2cc3ncnc(Nc4cccc(Cl)c4F)c3cc2NC(=O)/C=C/CN2CCOCC2)C1", "≥ 8.00"]
]}

---

target: EGFR V2 (Homo sapiens, UniProt P00533, DEL545-627); assay: BaF3 cell proliferation assay (CellTiterGlo), EGFR V2; conditions: Table B; BaF3 cells, 3 days
Sequence (P00533 with tags, fused parts or gaps DEL545-627): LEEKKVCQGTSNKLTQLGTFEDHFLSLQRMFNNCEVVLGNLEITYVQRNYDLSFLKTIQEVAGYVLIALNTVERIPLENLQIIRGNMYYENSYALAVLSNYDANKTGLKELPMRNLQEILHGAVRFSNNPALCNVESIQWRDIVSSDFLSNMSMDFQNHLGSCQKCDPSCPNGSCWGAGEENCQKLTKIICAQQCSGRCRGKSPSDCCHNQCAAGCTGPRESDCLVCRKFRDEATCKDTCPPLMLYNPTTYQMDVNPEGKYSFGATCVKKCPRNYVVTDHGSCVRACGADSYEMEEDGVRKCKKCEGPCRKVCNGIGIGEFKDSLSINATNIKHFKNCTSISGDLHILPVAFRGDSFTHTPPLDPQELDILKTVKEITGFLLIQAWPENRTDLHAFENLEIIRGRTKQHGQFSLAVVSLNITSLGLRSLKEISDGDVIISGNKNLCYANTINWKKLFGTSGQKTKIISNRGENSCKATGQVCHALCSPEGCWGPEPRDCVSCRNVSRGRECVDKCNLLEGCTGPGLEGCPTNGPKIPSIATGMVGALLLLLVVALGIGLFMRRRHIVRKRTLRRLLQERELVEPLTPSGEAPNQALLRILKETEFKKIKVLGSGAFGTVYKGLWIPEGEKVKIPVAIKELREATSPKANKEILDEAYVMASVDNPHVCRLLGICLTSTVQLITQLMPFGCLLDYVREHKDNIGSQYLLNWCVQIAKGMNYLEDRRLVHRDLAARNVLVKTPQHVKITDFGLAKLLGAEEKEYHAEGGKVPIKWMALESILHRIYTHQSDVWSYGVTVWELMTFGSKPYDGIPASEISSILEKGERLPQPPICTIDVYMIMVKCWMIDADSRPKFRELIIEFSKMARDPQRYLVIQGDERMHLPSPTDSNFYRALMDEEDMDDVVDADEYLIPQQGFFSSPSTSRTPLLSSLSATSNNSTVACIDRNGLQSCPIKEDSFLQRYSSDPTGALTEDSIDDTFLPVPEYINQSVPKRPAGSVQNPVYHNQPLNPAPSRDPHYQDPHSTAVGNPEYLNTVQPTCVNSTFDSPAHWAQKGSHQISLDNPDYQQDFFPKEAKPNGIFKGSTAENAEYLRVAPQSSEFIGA
pIC50: −log10 of the molar value.

{"columns": ["RECORD_SMILES", "pIC50"],
 "data": [
  ["CN1C[C@H]2C[C@@]2(C#Cc2cc3ncnc(Nc4cccc(Cl)c4F)c3cc2NC(=O)/C=C/CN2CCOCC2)C1", "≥ 8.00"]
]}
